Biological target: T1, human-CD40-monomer protein (human, UniProt P25942 21-193, limits assumed)
T1 construct: Soluble monomer generated in house, used as SPR analyte; also called hCD40; hCD40-monomer
T1 sequence (P25942 21-193 limits assumed): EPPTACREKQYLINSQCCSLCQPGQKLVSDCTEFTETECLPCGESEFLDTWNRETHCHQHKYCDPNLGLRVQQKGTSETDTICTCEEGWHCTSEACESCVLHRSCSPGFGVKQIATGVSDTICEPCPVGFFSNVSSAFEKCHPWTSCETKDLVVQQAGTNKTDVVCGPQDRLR
Assay: SPR, Ab captured on protein A, hCD40 monomer 500 and 50 nM, 1:1 fit; supernatant
measured_parameter: Kd (nM)
Write the value in nM as a bare number.

Exercise: Specify measured Kd for Y12XX-hz41 (antibody, human IgG1, kappa, V domains shown, Humanized, IgG1-P238K; supernatant sample) VH: QVQLVQSGAEVKKPGSSVKVSCKASGYAFTSYWMHWVRQAPGQGLEWMGQINPSNARSQYNEKFKTRVTITADKSTSTAYMELSSLRSEDTAVYYCARWGLQPFAYWGQGTLVTVSS VL: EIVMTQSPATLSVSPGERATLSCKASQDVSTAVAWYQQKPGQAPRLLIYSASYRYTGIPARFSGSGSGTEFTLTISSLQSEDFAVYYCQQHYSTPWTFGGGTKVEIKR .
Solution: 3.8

Exercise: Specify measured Kd for Y12XX-hz8 (antibody, human IgG1, kappa, V domains shown, Humanized, IgG1-P238K; supernatant sample) VH: QVQLVQSGAEVKKPGSSVKVSCKASGYAFTSYWMHWVRQAPGQGLEWMGYINPTTGYSAYNQKFKDKATLTADKSTSTAYMELSSLRSEDTAVYYCARWDARPFAYWGQGTLVTVSS VL: DIQMTQSPSSLSASVGDRVTITCKASQDVSTAVAWYQQKPGKAPKLLIYSASYRYTGVPSRFSGSGSGTDFTFTISSLQPEDIATYYCQQHYSTPWTFGGGTKVEIKR .
Solution: 210
